Recorded pKd, one value per entry.
target: human TYK2 (JH2domain-pseudokinase) (Homo sapiens (Human))
assay.summary: TYK2 JH2 Domain Binding Assay (KINOMEscan, DiscoveRx)
particulars: 11-point dilution, duplicate
pKd: −log10 of the molar value.
quantity.kind: pKd

molecule: Cc1nc2c(Nc3ccc(C4CCC(F)(F)CO4)cc3S(C)(=O)=O)cc(NC(=O)C3CC3)nc2[nH]1 (stereo not shown)
quantity.kind: pKd
result: 9.30 to 10.00

molecule: Cc1nc2c(Nc3ccc([C@H]4CCCCO4)cc3S(C)(=O)=O)cc(NC(=O)[C@H]3CC3(F)F)nc2[nH]1
quantity.kind: pKd
result: 9.00 to 9.30

molecule: CC1(C)CSC(c2ccc(Nc3cc(NC(=O)C4CC4(F)F)nc4[nH]c(C(F)F)nc34)c(S(C)(=O)=O)c2)=N1 (stereo not shown)
quantity.kind: pKd
result: < 8.00

molecule: Cn1cnc(-c2ccc(Nc3cc(NC(=O)[C@@H]4CC4(F)F)nc4[nH]c(C(F)F)nc34)c(S(C)(=O)=O)c2)c1
quantity.kind: pKd
result: 8.00 to 9.00

molecule: Cc1csc(-c2ccc(Nc3cc(Nc4cc5n(n4)CCOC5)nc4[nH]c(C)nc34)c(S(C)(=O)=O)c2)n1
quantity.kind: pKd
result: 9.30 to 10.00

molecule: COCc1ccc(Nc2cc(NC(=O)C3CC3)nc3[nH]c(C)nc23)c(S(C)(=O)=O)c1
quantity.kind: pKd
result: 9.30 to 10.00

molecule: Cc1nc2c(Nc3ccc(C4CC4)cc3N(C)S(C)(=O)=O)cc(NC(=O)C3CC3)nc2[nH]1
quantity.kind: pKd
result: 9.30 to 10.00

----------
target: human TYK2 (JH2domain-pseudokinase) (Homo sapiens (Human))
assay.summary: TYK2 JH2 Domain Binding Assay (KINOMEscan, DiscoveRx)
particulars: 11-point dilution, duplicate
Recorded Kd, one value per entry.
quantity.kind: Kd

compound: Cc1nc2c(Nc3ccc([C@H]4CCCCO4)cc3S(C)(=O)=O)cc(Nc3cnc(C)c(C)n3)nc2[nH]1 [I-474]
target: human TYK2 (JH2domain-pseudokinase) (Homo sapiens (Human))
quantity.kind: Kd
result: < 0.1 nM
//
compound: Cc1c(-c2ccc(Nc3cc(Nc4cc5n(n4)CCOC5)nc4[nH]c(C(F)F)nc34)c(S(C)(=O)=O)c2)cnn1C [I-491]
target: human TYK2 (JH2domain-pseudokinase) (Homo sapiens (Human))
quantity.kind: Kd
result: < 0.1 nM
//
compound: Cc1nn(C)c(C)c1-c1ccc(Nc2cc(NC(=O)C3CC3)nc3[nH]c(C(F)F)nc23)c(S(C)(=O)=O)c1 [I-446]
target: human TYK2 (JH2domain-pseudokinase) (Homo sapiens (Human))
quantity.kind: Kd
result: 0.1 to 0.5 nM
//
compound: Cc1nc2c(Nc3ccc(C4CCCCO4)cc3N(C)S(C)(=O)=O)cc(NC(=O)C3CC3)nc2[nH]1 (stereo not shown) [I-375]
target: human TYK2 (JH2domain-pseudokinase) (Homo sapiens (Human))
quantity.kind: Kd
result: 0.1 to 0.5 nM

----------
Recorded Kd, one value per entry.
target: human TYK2 (JH2domain-pseudokinase) (Homo sapiens (Human), UniProt P29597)
Sequence (P29597 556-888): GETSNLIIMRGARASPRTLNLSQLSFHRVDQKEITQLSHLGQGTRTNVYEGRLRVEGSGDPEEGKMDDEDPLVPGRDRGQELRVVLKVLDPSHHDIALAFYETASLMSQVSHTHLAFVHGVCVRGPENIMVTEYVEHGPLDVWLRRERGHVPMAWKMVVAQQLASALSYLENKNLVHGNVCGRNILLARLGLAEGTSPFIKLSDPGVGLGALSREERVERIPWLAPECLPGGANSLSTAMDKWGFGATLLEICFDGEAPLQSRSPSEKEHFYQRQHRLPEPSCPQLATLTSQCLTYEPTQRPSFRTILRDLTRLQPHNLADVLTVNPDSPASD
assay.summary: TYK2 JH2 Domain Binding Assay (KINOMEscan, DiscoveRx)
particulars: 11-point dilution, duplicate

smiles.string: Cc1nc2c(Nc3ccc(-c4ccn(C5CCOCC5)n4)cc3S(C)(=O)=O)cc(NC(=O)C3CC3)nc2[nH]1
Kd: < 0.1 nM
//
smiles.string: CN=[S@@](C)(=O)c1cc(-c2cnn(C)c2C)ccc1Nc1cc(NC(=O)C2CC2)nc2[nH]c(C(F)F)nc12
Kd: < 0.1 nM
//
smiles.string: COc1c(Nc2cc(Nc3cnc(C)c(C)n3)nc3[nH]c(C(F)F)nc23)cccc1-c1nnn(C)n1
Kd: 0.5 to 1 nM
//
smiles.string: Cc1c(-c2ccc(Nc3cc(NC(=O)C4CC4)nc4[nH]c(C(F)F)nc34)c(S(C)(=O)=O)c2)cnn1C1CC1
Kd: < 0.1 nM
//
smiles.string: COc1c(Nc2cc(NC(=O)C3CC3)nc3[nH]c(C(F)F)nc23)cccc1-c1cnn(C)c1
Kd: > 10 nM
//
smiles.string: COCc1ccc(Nc2cc(Nc3ccc(F)cc3S(C)(=O)=O)c3nc(C(F)F)[nH]c3n2)nn1
Kd: 0.1 to 0.5 nM
//
smiles.string: Cc1nc2c(Nc3ccc([C@@H]4CCC(C)(C)O4)cc3S(C)(=O)=O)cc(NC(=O)C3CC3)nc2[nH]1
Kd: 0.5 to 1 nM

----------
Recorded Kd, one value per entry.
target: human TYK2 (JH2domain-pseudokinase) (Homo sapiens (Human), UniProt P29597)
assay.summary: TYK2 JH2 Domain Binding Assay (KINOMEscan, DiscoveRx)
particulars: 11-point dilution, duplicate

smiles.string: COc1c(Nc2cc(Nc3ccn(C)n3)nc3[nH]cnc23)cccc1-c1ncn(C)n1
Kd: 1 to 10 nM
--
smiles.string: Cc1nc2c(Nc3ccc(-c4cnn(C)c4)cc3N(C)S(C)(=O)=O)cc(NC(=O)[C@H]3CC3(F)F)nc2[nH]1
Kd: 1 to 10 nM
--
smiles.string: CS(=O)(=O)c1cc(-c2ccn(C3CC3)n2)ccc1Nc1cc(NC(=O)C2CC2)nc2[nH]c(C(F)F)nc12
Kd: 0.1 to 0.5 nM
--
smiles.string: Cc1nc2c(Nc3ccccc3S(C)(=O)=O)cc(Nc3cccc(C#N)n3)nc2[nH]1
Kd: 0.1 to 0.5 nM
--
smiles.string: Cc1cn(C)nc1-c1ccc(Nc2cc(NC(=O)[C@H]3C[C@H]3F)nc3[nH]c(C(F)F)nc23)c(S(C)(=O)=O)c1
Kd: 0.1 to 0.5 nM
--
smiles.string: CS(=O)(=O)c1ccccc1Nc1cc(Nc2ccc3c(n2)C(F)(F)CC3)nc2[nH]c(C(F)F)nc12
Kd: 0.1 to 0.5 nM
--
smiles.string: Cc1nc2c(Nc3ccc(-c4nc(C)sc4C)cc3S(C)(=O)=O)cc(Nc3cnc(C)c(C)n3)nc2[nH]1
Kd: 0.1 to 0.5 nM
--
smiles.string: COc1c(Nc2cc(NC(=O)C3CC3)nc3[nH]c(C)nc23)cccc1-c1nc(C)nn1C
Kd: 1 to 10 nM
--
smiles.string: COc1c(Nc2cc(Nc3ccc(C(=O)N4CCCC4)c(C(F)(F)F)n3)nc3[nH]c(C)nc23)cccc1-c1nnn(C)n1
Kd: 0.1 to 0.5 nM
--
smiles.string: CN=[S@@](C)(=O)c1ccccc1Nc1cc(NC(=O)C2CC2)nc2[nH]c(C(F)F)nc12
Kd: 1 to 10 nM
--
smiles.string: Cc1nc2c(Nc3ccc(-c4cncn4C)cc3S(C)(=O)=O)cc(NC(=O)[C@H]3C[C@H]3F)nc2[nH]1
Kd: 0.1 to 0.5 nM
--
smiles.string: Cc1cc(Nc2cc(Nc3ccc(-c4nn(C)cc4C)cc3S(C)(=O)=O)c3nc(C)[nH]c3n2)nc(C)n1
Kd: < 0.1 nM
--
smiles.string: COc1c(Nc2cc(NC(=O)C3CC3)nc3[nH]c(C)nc23)ccc(-c2cc(C)n(C)n2)c1F
Kd: > 10 nM
--
smiles.string: Cc1nc2c(Nc3ccc(-c4nc(C)c(C)s4)cc3S(C)(=O)=O)cc(Nc3cnc(C)c(C)n3)nc2[nH]1
Kd: 0.5 to 1 nM
--
smiles.string: Cc1nc2c(Nc3ccc(-c4cncn4C)cc3N(C)S(C)(=O)=O)cc(NC(=O)[C@H]3CC3(F)F)nc2[nH]1
Kd: 1 to 10 nM

----------
target: human TYK2 (JH2domain-pseudokinase) (Homo sapiens (Human))
assay.summary: TYK2 JH2 Domain Binding Assay (KINOMEscan, DiscoveRx)
particulars: 11-point dilution, duplicate
pKd: −log10 of the molar value.

molecule: [2H]C([2H])([2H])S(=O)(=O)N(C)c1ccccc1Nc1cc(Nc2cc(C)nc(C)n2)nc2[nH]c(C)nc12 [I-456]
pKd: 9.30 to 10.00
//
molecule: Cc1nc2c(Nc3ccc([C@H]4CCCO4)cc3S(C)(=O)=O)cc(Nc3ccc(C(C)C)c(C#N)n3)nc2[nH]1 [I-595]
pKd: 9.30 to 10.00
//
molecule: COc1c(Nc2cc(Nc3ccc4c(n3)CCOC4)nc3[nH]c(C(F)F)nc23)cccc1-c1ncnn1C [I-645]
pKd: 8.00 to 9.00
//
molecule: Cc1ncc(Nc2cc(Nc3ccc(Cl)cc3N(C)S(C)(=O)=O)c3nc(C(F)F)[nH]c3n2)nc1C [I-93]
pKd: 9.30 to 10.00
//
molecule: Cc1nc2c(Nc3ccccc3N(C)S(C)(=O)=O)cc(Nc3cccc(C#N)n3)nc2[nH]1 [I-120]
pKd: > 10.00
//
molecule: CS(=O)(=O)c1cc([C@H]2CCCCO2)ccc1Nc1cc(NC(=O)[C@H]2CC2(F)F)nc2[nH]c(C(F)F)nc12 [I-280]
pKd: 9.00 to 9.30
//
molecule: CP(C)(=O)c1cc(C2CCC2)ccc1Nc1cc(NC(=O)C2CC2)nc2[nH]c(C(F)F)nc12 [I-444]
pKd: 9.30 to 10.00
